koff values, listed per item
STUDY SYSTEM: T1, recombinant BACE1 (BACE1 extracellular domain, R&D Systems Cat#931-AS) (UniProt P56817 22-457)
T1 construct: extracellular domain; also called BACE1 extracellular domain protein
T1 sequence (P56817 22-457): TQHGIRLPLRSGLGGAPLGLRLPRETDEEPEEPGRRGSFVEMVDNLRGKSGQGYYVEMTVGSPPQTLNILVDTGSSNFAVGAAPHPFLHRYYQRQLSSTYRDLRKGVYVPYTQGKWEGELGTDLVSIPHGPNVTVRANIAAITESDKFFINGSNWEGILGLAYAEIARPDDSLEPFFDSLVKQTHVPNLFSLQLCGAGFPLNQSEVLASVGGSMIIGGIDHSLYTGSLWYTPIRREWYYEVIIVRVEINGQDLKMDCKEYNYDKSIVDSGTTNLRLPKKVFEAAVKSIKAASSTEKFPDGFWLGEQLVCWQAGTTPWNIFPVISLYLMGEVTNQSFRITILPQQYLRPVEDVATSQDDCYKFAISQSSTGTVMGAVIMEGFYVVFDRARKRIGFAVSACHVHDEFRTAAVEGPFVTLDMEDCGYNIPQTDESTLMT
ASSAY: SPR Biacore

Q. Look up koff for this binder: 2H8.07 (antibody, human IgG1, V domains shown, human IgG1/kappa; also called 2H8_HC + 2H8_LCvar2) VH: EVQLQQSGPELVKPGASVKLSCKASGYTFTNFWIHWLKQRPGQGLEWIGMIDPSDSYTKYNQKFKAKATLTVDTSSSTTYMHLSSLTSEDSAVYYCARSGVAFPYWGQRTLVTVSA VL: DIVMTQSQKFMSTSVGDRVSVTCKASQNVGTNVAWYQQKPGQSPKALIYSASHRYSGVPDRFTGSGSGTDFTLTISNVQSEDLAEYFCQQYNSYMYTFGGGTKLEIK
A. 0.000294 s⁻¹

Next:
Q. Look up koff for this binder: 2H8.41 (antibody, human IgG1, V domains shown, human IgG1/kappa; also called 2H8_HCvar5 + 2H8_LCvar7) VH: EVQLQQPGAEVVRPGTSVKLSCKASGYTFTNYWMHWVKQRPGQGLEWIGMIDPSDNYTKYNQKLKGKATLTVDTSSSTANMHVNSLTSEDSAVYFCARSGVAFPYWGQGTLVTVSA VL: DILMTQSQKFMSTSVGDRVSVTCKASQNVGRNVAWYQQISGQSPKPLIYSASHRYSGVPDRFTGSGSGTDFTLTISNVQSEDLVEFFCQQYNSYPYTFGGGTKLEIK
A. 0.000197 s⁻¹
